biological target: human LPAR1 (Homo sapiens, UniProt Q92633); test: LPAR1 intracellular calcium mobilization assay (antagonist mode)
Sequence (Q92633 whole entry): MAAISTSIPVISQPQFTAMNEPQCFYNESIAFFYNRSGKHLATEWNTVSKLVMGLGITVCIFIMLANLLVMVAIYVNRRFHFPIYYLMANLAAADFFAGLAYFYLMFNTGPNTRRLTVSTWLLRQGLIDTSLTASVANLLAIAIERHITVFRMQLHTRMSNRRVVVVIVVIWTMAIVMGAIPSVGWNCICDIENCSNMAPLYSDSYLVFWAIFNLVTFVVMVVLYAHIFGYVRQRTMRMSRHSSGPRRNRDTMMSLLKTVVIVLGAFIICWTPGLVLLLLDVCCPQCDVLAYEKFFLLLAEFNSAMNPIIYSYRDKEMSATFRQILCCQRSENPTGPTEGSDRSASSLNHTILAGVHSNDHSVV
pEC50: −log10 of the molar value.
Returns YES if the recorded pEC50 is greater than or equal to 7, and NO otherwise.

>>> class_assignment("C[C@@H](OC(=O)Nc1c(-c2ccc(NS(C)(=O)=O)cn2)nnn1C)c1ccccc1F [Compound 16]")
"YES"
>>> class_assignment("COC1CN(S(=O)(=O)Nc2ccc(-c3nnn(C)c3NC(=O)O[C@H](C)c3cccc(F)c3)nc2C)C1 [Compound 108]")
"NO"
>>> class_assignment("Cc1nc(-c2nnn(C)c2NC(=O)O[C@H](C)c2cc(F)cc(F)c2)ccc1NS(C)(=O)=O [Compound 53]")
"NO"
>>> class_assignment("C[C@@H](OC(=O)Nc1c(-c2ccc(NS(C)(=O)=O)c(C3CC3)n2)nnn1C)c1cccnc1Cl [Compound 149]")
"NO"
>>> class_assignment("Cc1nc(-c2nnn(C)c2NC(=O)O[C@@H](c2ccccc2)C(F)(F)F)ccc1NS(C)(=O)=O [Compound 94]")
"YES"

====

Entries and their measured pEC50 follow.
biological target: human LPAR1 (Homo sapiens); assay: LPAR1 intracellular calcium mobilization assay (antagonist mode)
pEC50: −log10 of the molar value.
measure: pEC50

>>> measured_result("Cc1nc(-c2nnn(C)c2NC(=O)O[C@H](C)c2nc(Cl)sc2Cl)ccc1NS(C)(=O)=O")
6.79
>>> measured_result("CNS(=O)(=O)Nc1ccc(-c2nnn(C)c2NC(=O)O[C@H](C)c2cc(F)cnc2Cl)nc1")
7.09
>>> measured_result("Cn1nnc(-c2ccc(NS(=O)(=O)CC#N)cn2)c1NC(=O)O[C@@H](c1ccccc1)C(F)F")
7.15
>>> measured_result("Cc1nc(-c2nnn(C)c2NC(=O)OCCCC(C)(C)C)ccc1NS(C)(=O)=O")
6.18
>>> measured_result("Cc1nc(-c2nnn(C)c2NC(=O)OCc2cccc(F)c2)ccc1NS(C)(=O)=O")
7.14
>>> measured_result("Cc1nc(-c2nnn(C)c2NC(=O)OC(C)c2cccnc2C)ccc1NS(C)(=O)=O (stereo not shown)")
6.06
>>> measured_result("Cc1nc(-c2nnn(C)c2NC(=O)OC(CCC2CC2)C(F)(F)F)ccc1NS(C)(=O)=O (stereo not shown)")
7.04

====

biological target: human LPAR1 (Homo sapiens, UniProt Q92633); assay: LPAR1 intracellular calcium mobilization assay (antagonist mode)
This listing pairs compounds with measured EC50.
measure: EC50 (µM)

>>> measured_result("Cc1nc(-c2nnn(C)c2NC(=O)OC(C)c2ccnc(F)c2Cl)ccc1NS(C)(=O)=O (centres unmarked)")
0.0792
>>> measured_result("Cc1cccc(COC(=O)Nc2c(-c3ccc(NS(C)(=O)=O)c(C)n3)nnn2C)c1")
0.172
>>> measured_result("Cc1nc(-c2nnn(C)c2NC(=O)O[C@H](C)c2cc(F)cnc2C#N)ccc1NS(C)(=O)=O")
1.3
>>> measured_result("C[C@@H](OC(=O)Nc1c(-c2ccc(NS(C)(=O)=O)c(F)n2)nnn1C)c1ccccc1")
0.166
>>> measured_result("Cc1nc(-c2nnn(C)c2NC(=O)O[C@H](CF)c2cc(F)ccc2F)ccc1NS(C)(=O)=O")
0.0558

====

biological target: human LPAR1 (Homo sapiens, UniProt Q92633); assay: LPAR1 intracellular calcium mobilization assay (antagonist mode)
pEC50: −log10 of the molar value.
measure: pEC50

>>> measured_result("C[C@@H](OC(=O)Nc1c(-c2ccc(NS(C)(=O)=O)cn2)nnn1C)c1cccc(Cl)c1")
7.18
>>> measured_result("Cc1nc(-c2nnn(C)c2NC(=O)OC(C)c2cnc(F)cc2Cl)ccc1NS(C)(=O)=O (stereo not shown)")
6.57
>>> measured_result("C[C@@H](OC(=O)Nc1c(-c2ccc(NS(C)(=O)=O)cn2)nnn1C)c1cc(F)cnc1F")
7.31
>>> measured_result("Cc1ccccc1[C@@H](C)OC(=O)Nc1c(-c2ccc(NS(C)(=O)=O)c(C)n2)nnn1C")
7.34

Where these numbers come from: patent US11548871B2
